The following compounds are shown together with reported residual activity values.
target: Insulin receptor (Homo sapiens); conditions: at 1 µM
Unit % implied. Number only.

The examples below pair each entry with its known result.
>>> readout_value("O=C1NC(=O)C(c2cn(CCCO)c3ncccc23)=C1c1cnccn1")
94
>>> readout_value("O=C1NC(=O)c2c1c1c3ccccc3[nH]c1n1cncc21")
31
>>> readout_value("CCN(CC)CCNC(=O)c1c(C)[nH]c(/C=C2\\C(=O)Nc3ccc(Cl)cc32)c1C")
8

Please turn your attention to the following entry.
IN: Which residual activity is reported for this compound? `N#C/C(=C\c1ccc(O)c(O)c1)C(=O)NCc1ccccc1`
OUT: 100
